What growth was measured for each of the following?
# System: HS 578T breast
# METHOD DESCRIPTION: NCI-60 one-dose screen, 48 h (100 = growth as untreated, 0 = no growth, -100 = all killed)
# CONDITION NOTES: 10 µM unless noted
# Description: Growth inhibition of the HS 578T human tumor cell line is measured as a screen for anti-cancer activity. Cells are grown in 96 well plates and exposed to the test compound for 48 hours. Compounds are tested at a single concentration, which is 10^-5 M for most compounds. The reported endpoint is percent growth (GI% or GIPRCNT), where numbers from 0 - 100% represent growth inhibition, and numbers from -100% - 0 represent cell death. For example, a value of 40 represents 60% growth inhibition. […]
The panel holds about 83,000 compounds, 20% with a hit somewhere; the sample as a whole holds those more often.
One number for each entry, in %.

COMPOUND: CC(=O)c1cccc(O)c1
growth, %: 96.5
--
COMPOUND: C=C(OC(C)=O)c1ccccc1
growth, %: 90.7
--
COMPOUND: CC(=O)c1cccc(N(C)S(=O)(=O)c2ccc(C)cc2)c1
growth, %: 102
--
COMPOUND: CC(C)c1ccc(C(=O)OCCCl)cc1
growth, %: 94.7
--
COMPOUND: CCOc1ccc(C(=O)NCC(C)C)cc1
growth, %: 107
--
COMPOUND: C#CCSc1nnnn1-c1ccccc1
growth, %: 102

Quick batch: growth for everything below.
1. Nc1cccc2cccc(O)c12
2. C/C(O)=C(/C=N\C(=S)Nc1ccc(S(=O)(=O)Nc2nccs2)cc1)C(=O)Nc1ccccc1C
3. O=C1C=C[C@H](O)[C@@]2(CO)O[C@@H]12
4. CCCC(=O)c1cccs1
5. NC(=S)N/N=C/c1ccc(OC(=O)COc2ccccc2)cn1

Return:
1. 82.1
2. 84.1
3. 100
4. 95.2
5. 116

Okay, here is my list. What is growth for each of these?
1. CC(=O)O[C@H]1CC[C@]2(C)C3=C(C(=O)C[C@H]2C1(C)C)[C@]1(C)CC[C@H]([C@H](C)CCC(=O)O)[C@@]1(C)CC3=O
2. CS(=O)(=O)c1ccc(/C=C\C(=O)O)cc1
3. COC1(OC)C2(Cl)C(Cl)=C(Cl)C1(Cl)C1COCC12 (stereo unspecified)
4. CC(=O)NC(CCc1ccc(Cl)c(Cl)c1)c1cccc(O)c(=O)c1 (stereo unspecified)
5. CCOC(=O)CNC
6. CNc1ccccc1C(=O)N/N=C/C=C/c1ccccc1
7. Cc1ccc(OC(=O)c2ccccc2)cc1

Return:
119
81.7
87.4
54.1
121
16.5
141

Hi! Can you tell me growth for each of these compounds?
1. C=C1SC(=Nc2c(C)cccc2C)N(c2nc(Cl)nc(Cl)n2)C12CCCCC2
2. CC1CCC(C)(C)c2ccccc21 (stereo unspecified)
3. COc1cc(C(=O)O)c(O)c(C(C)(C)C)c1
4. CN(C)c1ccc(O)c2c1CC1CC3C(N(C)C)C(=O)C(C(N)=O)=C(O)C3(O)C(=O)C1=C2O (stereo unspecified)
5. CC(=O)N=c1ccc2nc3c(cc(N)c4ccccc43)oc-2c1
6. Cc1ccc(S(N)(=O)=O)cc1Cl
7. CCCCc1ccc2nc(NC(=O)OC)[nH]c2c1

Return:
[113, 105, 105, 48.9, -27.7, 117, 8.57]

Enquiry: Using known records, supply growth for O=S(=O)(OCCOS(=O)(=O)c1ccccc1)c1ccccc1
Return: 108
